{"STRUCTURE NOTATION": "COc1ccc(-c2cnc3ccc(NC(=O)NCCCCc4ccccc4)nc3n2)cc1", "melting point": "200 to 203 °C"}
{"STRUCTURE NOTATION": "CCCn1cc(-c2cnc3ccc(NC(=O)NCCCC(=O)c4ccccc4)nc3n2)cn1", "melting point": "210 to 211 °C"}
{"STRUCTURE NOTATION": "Cn1cc(-c2cnc3ccc(NC(=O)NCCCCc4ccccc4)nc3n2)cn1", "melting point": "198 to 201 °C"}
{"STRUCTURE NOTATION": "O=C(NCCCCc1ccccc1)Nc1ccc2ncc(-c3ccc(CO)cc3)nc2n1", "melting point": "213 to 215 °C"}

----------
{"STRUCTURE NOTATION": "Nc1ccccc1-c1cnc2ccc(NC(=O)NCCCCc3ccccc3)nc2n1", "melting point": "190 to 191 °C"}
{"STRUCTURE NOTATION": "O=C(NCCCCc1ccccc1)Nc1ccc2ncc(-c3cccc(O)c3)nc2n1", "melting point": "226 to 228 °C"}
{"STRUCTURE NOTATION": "O=C(NCCCCc1ccccc1)Nc1ccc2ncc(-c3ccc(OCCOCCO)cc3)nc2n1", "melting point": "192 to 194 °C"}
{"STRUCTURE NOTATION": "Cc1ccc(CCCCNC(=O)Nc2ccc3ncc(-c4cnn(C)c4)nc3n2)cc1", "melting point": "202 to 204 °C"}

----------
Counter-ions that a name gives are not always drawn.
Observed IC50 for Erk2 (Homo sapiens, UniProt P28482), reported per entry below.

{"COMPOUND": "O=C(NCCCCc1ccccc1)Nc1ccc2ncc(N3CCOCC3)nc2n1", "IC50": "6 nM"}
{"COMPOUND": "O=C(NCCCCc1ccccc1)Nc1ccc2ncc(-c3cccc(CO)c3)nc2n1", "IC50": "6 nM"}
{"COMPOUND": "C[C@H](CCCc1ccccc1)NC(=O)Nc1ccc2ncc(-c3ccc(C[C@H](N)C(=O)O)cc3)nc2n1 [Compound 195, hydrochloride]", "IC50": "1 nM"}
{"COMPOUND": "C[C@H](CCCc1ccccc1)NC(=O)Nc1ccc2ncc(-c3ccncc3)nc2n1", "IC50": "2 nM"}
{"COMPOUND": "C[C@H](CCCc1ccccc1)NC(=O)Nc1ccc2ncc(-c3ccc(CO)cc3)nc2n1", "IC50": "3 nM"}
{"COMPOUND": "C[C@H](CCCc1ccccc1)NC(=O)Nc1ccc2ncc(N3CCCC3)nc2n1", "IC50": "5 nM"}
{"COMPOUND": "O=C(NCCCCc1ccccc1)Nc1ccc2ncc(-c3cnn(CCN4CCOCC4)c3)nc2n1", "IC50": "5 nM"}
{"COMPOUND": "CCCn1cc(-c2cnc3ccc(NC(=O)N[C@H](C)CCCc4ccccc4)nc3n2)cn1", "IC50": "4 nM"}
{"COMPOUND": "C[C@H](CCCc1ccccc1)NC(=O)Nc1ccc2ncc(N3CCOCC3)nc2n1", "IC50": "3 nM"}
{"COMPOUND": "C[C@H](CCCc1ccccc1)NC(=O)Nc1ccc2ncc(-c3cccc(C(=O)O)c3)nc2n1", "IC50": "4 nM"}
{"COMPOUND": "N[C@@H](Cc1ccc(-c2cnc3ccc(NC(=O)NCCCCc4ccccc4)nc3n2)cc1)C(=O)O", "IC50": "5 nM"}
{"COMPOUND": "O=C(NCCCCc1ccccc1)Nc1ccc2ncc(-c3ccc(OCCN4CCOCC4)cc3)nc2n1", "IC50": "41 nM"}
{"COMPOUND": "O=C(NCCCCc1ccccc1)Nc1ccc2ncc(-c3cn[nH]c3)nc2n1", "IC50": "1 nM"}
{"COMPOUND": "CCn1cc(-c2cnc3ccc(NC(=O)NCCCCc4ccccc4)nc3n2)cn1", "IC50": "4 nM"}
{"COMPOUND": "COc1cc(CO)ccc1-c1cnc2ccc(NC(=O)N[C@H](C)CCCc3ccccc3)nc2n1", "IC50": "1 nM"}
{"COMPOUND": "Cn1cc(-c2cnc3ccc(NC(=O)NCCCCc4ccccc4)nc3n2)cn1", "IC50": "4 nM"}
{"COMPOUND": "C[C@H](CCCc1ccccc1)NC(=O)Nc1ccc2ncc(-c3cn[nH]c3)nc2n1", "IC50": "4 nM"}
{"COMPOUND": "O=C(NCCCCc1ccccc1)Nc1ccc2ncc(-c3ccc(OP(=O)(O)O)cc3)nc2n1", "IC50": "3 nM"}
{"COMPOUND": "O=C(NCCCCc1ccccc1)Nc1ccc2ncc(-c3ccc(OCCOCCO)cc3)nc2n1", "IC50": "39 nM"}
{"COMPOUND": "O=C(NCCCCc1ccccc1)Nc1ccc2ncc(-c3ccc(O)cc3)nc2n1", "IC50": "1 nM"}

----------
Measured melting point of individual entries

{"COMPOUND": "O=C(NCCCCc1ccccc1)Nc1ccc2ncc(-c3ccc(OP(=O)(O)O)cc3)nc2n1 [Compound 165]", "melting point": "202 °C"}
{"COMPOUND": "C[C@H](CCCc1ccccc1)NC(=O)Nc1ccc2ncc(-c3ccc(CO)cc3)nc2n1 [Compound 167]", "melting point": "187 to 190 °C"}
{"COMPOUND": "Cc1c(-c2cnc3ccc(NC(=O)NCCCCc4ccccc4)nc3n2)cnn1-c1ccccc1 [Compound 113]", "melting point": "224 to 226 °C"}
{"COMPOUND": "Cn1cc(-c2cnc3ccc(NC(=O)NCCCC(C)(C)c4ccccc4)nc3n2)cn1 [Compound 169]", "melting point": "208 to 210 °C"}
{"COMPOUND": "O=C(NCCCCc1ccccc1)Nc1ccc2ncc(-c3cn[nH]c3)nc2n1 [Compound 159]", "melting point": "231 to 232 °C"}
{"COMPOUND": "COc1ccc(CCCCNC(=O)Nc2ccc3ncc(-c4cnn(C)c4)nc3n2)cc1 [Compound 115]", "melting point": "195 to 196 °C"}
{"COMPOUND": "CCCn1cc(-c2cnc3ccc(NC(=O)N[C@H](C)CCCc4ccccc4)nc3n2)cn1 [Compound 170]", "melting point": "185 to 188 °C"}
{"COMPOUND": "Cn1cc(-c2cnc3ccc(NC(=O)NCCCCc4ccc(F)cc4)nc3n2)cn1 [Compound 99]", "melting point": "197 to 200 °C"}

----------
ENDPOINT: melting point

{"COMPOUND": "CCCn1cc(-c2cnc3ccc(NC(=O)NCCCC(C)(C)c4ccccc4)nc3n2)cn1", "RESULT": "205 to 207 °C"}
{"COMPOUND": "O=C(NCCCCc1ccccc1)Nc1ccc2ncc(-c3cc(Cl)c(O)c(Cl)c3)nc2n1", "RESULT": "271 to 273 °C"}
{"COMPOUND": "O=C(NCCCCc1ccccc1)Nc1ccc2ncc(-c3ccncc3)nc2n1", "RESULT": "219 to 222 °C"}
{"COMPOUND": "C[C@H](CCCc1ccccc1)NC(=O)Nc1ccc2ncc(-c3ccc(O)c(F)c3)nc2n1", "RESULT": "220 to 222 °C"}
{"COMPOUND": "CCOc1ccccc1-c1cnc2ccc(NC(=O)NCCCCc3ccccc3)nc2n1", "RESULT": "173 to 175 °C"}
{"COMPOUND": "N[C@@H](Cc1ccc(-c2cnc3ccc(NC(=O)NCCCCc4ccccc4)nc3n2)cc1)C(=O)O", "RESULT": "230 to 232 °C"}
{"COMPOUND": "Cc1n[nH]c(C)c1-c1cnc2ccc(NC(=O)NCCCCc3ccccc3)nc2n1", "RESULT": "299 to 300 °C"}
{"COMPOUND": "Cc1ccccc1-c1cnc2ccc(NC(=O)NCCCCc3ccccc3)nc2n1", "RESULT": "158 to 160 °C"}
{"COMPOUND": "Cn1cc(-c2cnc3ccc(NC(=O)NCC4CCc5ccccc5C4)nc3n2)cn1 (centres unmarked)", "RESULT": "230 to 233 °C"}
{"COMPOUND": "O=C(NCCCCc1ccccc1)Nc1ccc2ncc(-c3ccc4nc[nH]c4c3)nc2n1", "RESULT": "226 °C"}
{"COMPOUND": "O=C(NCCCCc1ccccc1)Nc1ccc2ncc(N3CCOCC3)nc2n1", "RESULT": "200 to 202 °C"}
{"COMPOUND": "COc1ccc(-c2cnc3ccc(NC(=O)NCCCCc4ccccc4)nc3n2)c(OC)c1OC", "RESULT": "135 to 138 °C"}
{"COMPOUND": "O=C(NCCCCc1ccccc1)Nc1ccc2ncc(-c3ccoc3)nc2n1", "RESULT": "212 to 216 °C"}
{"COMPOUND": "C[C@H](CCCc1ccccc1)NC(=O)Nc1ccc2ncc(-c3cccc(C(=O)O)c3)nc2n1", "RESULT": "261 °C (dec.)"}
{"COMPOUND": "O=C(NCCCCc1ccccc1)Nc1ccc2ncc(N3CCCC3)nc2n1", "RESULT": "204 to 206 °C"}
{"COMPOUND": "COc1ccc(-c2cnc3ccc(NC(=O)NCCCCc4ccccc4)nc3n2)cc1S(=O)(=O)N1CCOCC1", "RESULT": "256 to 258 °C"}
{"COMPOUND": "COc1cc(Nc2cnc3ccc(NC(=O)NCCCCc4ccccc4)nc3n2)cc(O)c1OC", "RESULT": "136 to 139 °C"}
